Reference source: patent US20260132197A1

target: T1, wild type human CD47 (Acro Biosystems, cat. no. CD7-H5227) (human, UniProt Q08722 19-139); assay: SPR, IgG captured, CD47 in flow; exp 2;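 note: rates derived from association and dissociation curves, KD estimated from them, C33G mutein used to avoid CD47 IgV homodimers for true monovalent affinity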
T1 construct: Bought protein used as SPR analyte; also called Human CD47 wt; wild-type CD47
T1 sequence (Q08722 19-139 limits assumed): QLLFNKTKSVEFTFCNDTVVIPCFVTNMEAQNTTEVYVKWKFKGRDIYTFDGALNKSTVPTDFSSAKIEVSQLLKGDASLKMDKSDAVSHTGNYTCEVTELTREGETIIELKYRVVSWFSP
# Lookup of reported kon keyed by entry
Answer with a number only, understood to be in M⁻¹ s⁻¹.

Recorded kon, per entry:
{"Binder": "108VH10 / 108VL10.M1 (antibody, V domains shown, 4D5-framework series; also called VH10 VL10.M1; straight-graft antibody) VH: EVQLVESGGGLVQPGGSLRLSCAASGYSFTHHWIHWVRQAPGKGLEWVAMIDPSDSETRLSQKFKDRFTISADTSKNTAYLQMNSLRAEDTAVYYCSRLGRYYFDYWGQGTLVTVSS VL: DIQMTQSPSSLSASVGDRVTITCRASENVGTYISWYQQKPGKAPKLLIYGASNRYTGVPSRFSGSRSGTDFTLTISSLQPEDFATYYCGESYGHLYTFGQGTKVEIK", "Uom": "M⁻¹ s⁻¹", "kon": 280000}
{"Binder": "108VH10 / 108VL10.Md (antibody, V domains shown, 4D5-framework series; constant regions not restated for this series; also called VH10 VL10.Md) VH: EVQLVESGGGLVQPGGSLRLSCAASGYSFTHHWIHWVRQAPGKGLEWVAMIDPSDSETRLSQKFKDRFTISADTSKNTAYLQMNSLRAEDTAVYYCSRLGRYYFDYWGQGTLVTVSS VL: DIQMTQSPSSLSASVGDRVTITCRASENVGTYISWYQQKPGKAPKLLIYGASNRYSGVPSRFSGSRSGTDFTLTISSLQPEDFATYYCGESYGHLYTFGQGTKVEIK", "Uom": "M⁻¹ s⁻¹", "kon": 230000}
{"Binder": "108VH10.Mb / 108VL10.M1 (antibody, V domains shown, 4D5-framework series; constant regions not restated for this series; also called VH10.Mb VL10.M1) VH: EVQLVESGGGLVQPGGSLRLSCAASGYSFTHHWMHWVRQAPGKGLEWVAMIDPSDSETRLSQKFKDRFTISADTSKNTAYLQMNSLRAEDTAVYYCSRLGRYYFDYWGQGTLVTVSS VL: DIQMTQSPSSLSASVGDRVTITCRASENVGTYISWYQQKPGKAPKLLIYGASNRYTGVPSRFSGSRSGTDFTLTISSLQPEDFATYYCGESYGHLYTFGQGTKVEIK", "Uom": "M⁻¹ s⁻¹", "kon": 240000}

Note to self: kon recorded for 108VH4.M4-VL1.M1 (antibody, V domains shown, also called original humanized 108C10A6 antibody) VH: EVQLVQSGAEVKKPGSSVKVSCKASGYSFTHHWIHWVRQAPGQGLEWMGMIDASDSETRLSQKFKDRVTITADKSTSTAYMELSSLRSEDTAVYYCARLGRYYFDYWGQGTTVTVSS VL: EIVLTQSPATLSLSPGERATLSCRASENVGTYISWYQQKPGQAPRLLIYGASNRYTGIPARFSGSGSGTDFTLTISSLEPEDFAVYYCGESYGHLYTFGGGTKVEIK was 980000
